B1: Osa-1-4 twister ribozyme (parent)
chain: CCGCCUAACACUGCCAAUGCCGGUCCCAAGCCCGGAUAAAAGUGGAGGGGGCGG

Variants of: B1
Assay: self-cleavage, relative activity (ratio to wild type); higher = more cleavage; co-transcriptional
Label Satisfied for high-side self-cleavage (at or above 0.08) and Not satisfied for low-side self-cleavage (below it).

Solved entries (count: 5):
CCGCCUAACACUGCCAAUGUCGGUCCCAAGCCCAGAUAAAAGUGGAGGGGGCGG :: Satisfied
CCGCCUAACACUGCCACUGCCGGUCGCAAGCCCGGAUAAAAGUGGAGGGGGCGG :: Not satisfied
CCGCCUAACACUGCCAAUGCCGGUCCCAAGCCCGGAUAAAAGUGGAGAGGGCGU :: Satisfied
CCGCCUAACACUGCCAAUGCCGGCCCCAAGCCCGGAUGAAAGUGGAGGGGGCGG :: Satisfied
CCGCCUAACACUCCCAAUGCCGGUCCCAACCCCGGAUAAAAGUGGAGGGGGCGG :: Not satisfied

**Q:** Exam item: decide whether the reported self-cleavage for CCGCCUAACACUGCCAGUGCCGGUCCCAAGCCCGGAUAAAGGUGGAGGGGGCGG is at least 0.08.
**A:** Satisfied

**Q:** Exam item: decide whether the reported self-cleavage for CCGCCUAACACUGCCAACGCCGGUCCCAAGCCCGGAUAAACGUGGAGGGGGCGG is at least 0.08.
**A:** Satisfied

**Q:** Exam item: decide whether the reported self-cleavage for CCGCCUAACACUGCCAAUGCCGGUCCCACGCCCAGAUAAAAGUGGAGGGGGCGG is at least 0.08.
**A:** Not satisfied

**Q:** Exam item: decide whether the reported self-cleavage for CCGCCUAACACUGCCAAUGCCGGUCCCAAGCCCGAAUAAAUGUGGAGGGGGCGG is at least 0.08.
**A:** Satisfied

**Q:** Exam item: decide whether the reported self-cleavage for CCGCCUAACAAUGCUAAUGCCGGUCCCAAGCCCGGAUAAAAGUGGAGGGGGCGG is at least 0.08.
**A:** Not satisfied
